test: Tanguay_ZF_120hpf_AXIS_legacy: (Legacy) Oregon State University Tanguay Lab 120 Hour Post-fertilization zebrafish Assay for Body Axis Malformation (AID 2283635)
Records with an inconclusive call do not appear. The source made the active and inactive calls. Rule for the calls: active = hit-call score of the fitted dose curve at least 0.9, where 1 is the maximum; inconclusive = response in the unintended direction; inactive = score below 0.9.
Lab note: assign the record to one of yes (1) (active), no (0) (inactive)

O=NN(c1ccccc1)c1ccccc1	no (0)
CCOCCOC(C)=O	no (0)
COc1ccc(O)c(C(C)(C)C)c1	no (0)
CC1=C2C[C@H]3[C@@H](CC=C4C[C@@H](O)CC[C@@]43C)[C@@H]2CC[C@]12O[C@@H]1C[C@H](C)CN[C@H]1[C@H]2C	yes (1)

query: Per the assay record, what outcome was assigned to `Oc1ccc(C(c2ccc(O)cc2)(C(F)(F)F)C(F)(F)F)cc1` ?
result: yes (1)

query: Query `NS(=O)(=O)C(F)(F)C(F)(F)C(F)(F)C(F)(F)C(F)(F)C(F)(F)C(F)(F)C(F)(F)F` next
result: no (0)

query: Query `Cc1cccc(C)c1N` next
result: no (0)

query: Query `c1cc2ccc3cccc4ccc(c1)c2c34` next
result: no (0)

query: Query Clc1ccc(C(c2ccccc2Cl)C(Cl)(Cl)Cl)cc1 (centres undefined) next
result: no (0)

====

test: Tanguay_ZF_120hpf_MORT_legacy: (Legacy) Oregon State University Tanguay Lab 120 Hour Post-fertilization zebrafish Assay for Mortality (AID 2283633)
The source made the active and inactive calls. Rule for the calls: active = hit-call score of the fitted dose curve at least 0.9, where 1 is the maximum; inconclusive = response in the unintended direction; inactive = score below 0.9.
Lab note: assign the record to one of active, inactive

Some solved cases for reference:
C[C@]12CCC(=O)C=C1CC[C@@H]1[C@@H]2CC[C@@]2(C)[C@H]1CC[C@]2(C)O	inactive
CN(C)CCO	inactive
CCC(C)(c1ccc(O)cc1)c1ccc(O)cc1	active
CCC(C)(CC)c1cc(NC(=O)c2c(OC)cccc2OC)on1	inactive
Clc1ccc(C(Cl)(Cl)Cl)cc1	inactive

query: Per the assay record, what outcome was assigned to `Cc1cccc(C)c1N` ?
result: inactive

query: Query `O=C(NC(=O)c1c(F)cccc1F)Nc1cc(Cl)c(OC(F)(F)C(F)F)c(Cl)c1` next
result: inactive

query: Query `COS(=O)(=O)OC` next
result: inactive

query: Query `Cc1cccc([N+](=O)[O-])c1` next
result: inactive

query: Query `O=C(O)C(F)(F)C(F)(F)C(F)(F)C(F)(F)C(F)(F)C(F)(F)C(F)(F)C(F)(F)C(F)(F)F` next
result: inactive

====

read-out: Forkhead box O1 (FOXO1), FOXO1 (gene 2308); test: LTEA_HepaRG_FOXO1: Life Technologies and Expression Analysis (LTEA) Assay for Forkhead box O1 (FOXO1) using HepaRG (AID 2283456); details: mRNA level, 48 h; actives raise or lower the signal
The source made the active and inactive calls. How the source made its calls: active means hit-call score of the fitted dose curve at least 0.9, where 1 is the maximum; inactive means score below 0.9.
Lab note: assign the record to one of active, inactive

C1CC2OC2CC1C1CO1 (stereo unspecified)	inactive
CCCCCCCCCC[N+](C)(C)CCCCCCCCCC	inactive
CCC(C)(c1ccc(O)cc1)c1ccc(O)cc1	inactive
Cc1ccccc1O	inactive

query: Per the assay record, what outcome was assigned to `C[C@]12CCC(=O)C=C1CC[C@@H]1[C@@H]2CC[C@]2(C)C(=O)CC[C@@H]12` ?
result: inactive

query: Query `COS(=O)(=O)OC` next
result: inactive

query: Query `CCC(=O)O[C@H]1CC[C@H]2[C@@H]3CCC4=CC(=O)CC[C@]4(C)[C@H]3CC[C@]12C` next
result: inactive

query: Query `O=C(O)C(F)(F)C(F)(F)C(F)(F)C(F)(F)C(F)(F)C(F)(F)C(F)(F)C(F)(F)C(F)(F)F` next
result: active

query: Query `O=S(=O)(O)C(F)(F)C(F)(F)C(F)(F)C(F)(F)C(F)(F)C(F)(F)F` next
result: inactive

query: Query `O=C(NC(=O)c1c(F)cccc1F)Nc1cc(Cl)c(OC(F)(F)C(F)F)c(Cl)c1` next
result: inactive

query: Query `Cc1cc(-c2ccc(N)c(C)c2)ccc1N` next
result: inactive

====

Target: Peroxisome proliferator-activated receptor gamma (Homo sapiens)
Test: ATG_PPARg_TRANS: Attagene TRANS-FACTORIAL HepG2 Assay for human Peroxisome Proliferator-activated Receptor-gamma (PPARg) (AID 2283007)
Experimental: ATG_TRANS is a cell-based, multiplexed-readout assay that uses HepG2, a human liver cell line, with measurements taken at 24 hours after chemical dosing in a 24-well plate.ATG_PPARg_TRANS is one of 30 assay component(s) measured or calculated from the ATG_TRANS assay. […] This assay endpoint, ATG_PPARg_TRANS, was analyzed in the positive analysis fitting direction relative to DMSO as the negative control and baseline of activity. […]
Results filed as inconclusive are left out. Active and inactive are the calls of the source. Rule for the calls: active = hit-call score of the fitted dose curve at least 0.9, where 1 is the maximum; inconclusive = response in the unintended direction; inactive = score below 0.9.
Property: AC50

Worked examples, 4 compounds total:
Cc1ccccc1CO[C@@H]1C[C@@]2(C(C)C)CC[C@]1(C)O2	32.3 µM (active)
CN(C)c1nc(=O)n(C2CCCCC2)c(=O)n1C	inactive
ClC1=C(Cl)[C@]2(Cl)[C@@H]3[C@H]4C[C@H]([C@@H]5O[C@H]45)[C@@H]3[C@@]1(Cl)C2(Cl)Cl	inactive
Clc1ccc(Cl)cc1	inactive

query: Which AC50 value is on record for `O=S(=O)(O)C(F)(F)C(F)(F)C(F)(F)C(F)(F)F` ?
result: inactive

====

Read-out: Tumor necrosis factor receptor 1 (TNFRSF1A), TNFRSF1A (gene 7132)
Assay: LTEA_HepaRG_TNFRSF1A: Life Technologies and Expression Analysis (LTEA) Assay for Tumor necrosis factor receptor 1 (TNFRSF1A) using HepaRG (AID 2283535)
Details: mRNA level, 48 h; actives raise or lower the signal
Experimental: LTEA_HepaRG is a cell based, multiplexed-readout assay that uses HepaRG, a human liver cell line, with measurements taken at 48 hours after chemical dosing on a 96-well plate.LTEA_HepaRG_TNFRSF1A is one of 102 assay component(s) measured in the LTEA HepaRG cell culture assay. It is a marker of Cell proliferation, survival, death.Data from the assay component LTEA_HepaRG_TNFRSF1A was analyzed into 1 endpoint. […]
Active and inactive are the calls of the source. The calls were made as follows: active = hit-call score of the fitted dose curve at least 0.9, where 1 is the maximum; inactive = score below 0.9.
Lab note: assign the record to one of active, inactive

Some solved cases for reference:
CC1=C2C[C@H]3[C@@H](CC=C4C[C@@H](O)CC[C@@]43C)[C@@H]2CC[C@]12O[C@@H]1C[C@H](C)CN[C@H]1[C@H]2C	inactive
O=C(O)C(F)(F)C(F)(F)C(F)(F)C(F)(F)C(F)(F)C(F)(F)C(F)(F)C(F)(F)C(F)(F)F	active
ClC(Cl)=C(c1ccc(Cl)cc1)c1ccc(Cl)cc1	inactive
CN(C)c1nc(=O)n(C2CCCCC2)c(=O)n1C	inactive

Shift focus to the following entry.
query: Per the assay record, what outcome was assigned to `CCSC(=O)N(CC)C1CCCCC1` ?
result: inactive

====

biological target: human Dopamine Transporter (DAT), SLC6A3 (gene 6531); test: NVS_TR_hDAT: NovaScreen (NVS) Transporter Assay for human Dopamine Transporter (DAT) (AID 2283374);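 note: activity means loss of bound radioligand signal relative to DMSO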
Results filed as inconclusive are left out. Activity calls are given as the source filed them. How the source made its calls: active means hit-call score of the fitted dose curve at least 0.9, where 1 is the maximum; inconclusive means response in the unintended direction; inactive means score below 0.9.
Lab note: assign the record to one of active, inactive

Some solved cases for reference:
Nc1ccc(-c2ccc(N)cc2)cc1	inactive
CC(C)(c1ccccc1)c1ccc(O)cc1	active
C[C@]12CCC(=O)C=C1CC[C@@H]1[C@@H]2CC[C@@]2(C)[C@H]1CC[C@]2(C)O	inactive
ClC(Cl)=C(c1ccc(Cl)cc1)c1ccc(Cl)cc1	inactive
CCOC(=O)C(O)(c1ccc(Cl)cc1)c1ccc(Cl)cc1	active

query: Per the assay record, what outcome was assigned to `CCCCCCOC(=O)c1ccccc1C(=O)OCCCCCC` ?
result: inactive

query: Query `Cc1cc(-c2ccc(N)c(C)c2)ccc1N` next
result: active

====

read-out: Interleukin-6 (IL6), IL6 (gene 3569); test: BSK_CASM3C_IL6: BioMAP Diversity Plus: CASM3C Assay for Interleukin-6 (IL6) Biomarker Activity for (AID 2283040); conditions: primary human coronary artery smooth muscle cells; actives raise or lower the signal
The source made the active and inactive calls. The calls were made as follows: active = hit-call score of the fitted dose curve at least 0.9, where 1 is the maximum; inactive = score below 0.9.
Lab note: assign the record to one of yes (1) (active), no (0) (inactive)

CCC(C)c1cc([N+](=O)[O-])cc([N+](=O)[O-])c1O (stereo not given)	no (0)
N#Cc1ccc(N(CC(N)=O)CC(F)(F)F)cc1C(F)(F)F	no (0)
CCCCCCCCCc1ccc(O)cc1	yes (1)
CC#Cc1cc(C)nc(Nc2ccccc2)n1	no (0)
COS(=O)(=O)OC	no (0)

query: Per the assay record, what outcome was assigned to `C=CC(N)=O` ?
result: no (0)

query: Query `CO/C=C(/C(=O)OC)c1ccccc1COc1cccc(C(F)(F)F)n1` next
result: yes (1)

query: Query `CN(C)c1nc(=O)n(C2CCCCC2)c(=O)n1C` next
result: no (0)

query: Query `COc1ccc(O)c(C(C)(C)C)c1` next
result: no (0)

query: Query `Nn1cnnc1` next
result: no (0)

query: Query C1CC2OC2CC1C1CO1 (stereo not given) next
result: no (0)

query: Query `Sc1ccccc1` next
result: no (0)

query: Query `Clc1ccc(C(Cl)(Cl)Cl)cc1` next
result: no (0)

query: Query `Clc1ccc(Cl)cc1` next
result: no (0)

query: Query `O=C(N[C@H]1CN2CCC1CC2)c1cc2ccoc2cn1` next
result: no (0)
